Each recorded value in this set is attributed to patent US20250320312A1.

assay.system: Peptide 1: Biotin-…-[Tyr(PC)]-acid
Sequence (peptide, as listed by the source): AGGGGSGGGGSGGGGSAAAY
procedure.text: scFv ELISA
Listed here are binders together with their documented OD450.
Return type: number; implicit unit OD450.

binder	data.value
PcOxP_DB02_G06 (scFv, V domains shown, scFv in periplasmic extract) VH: EVQLLESGGGLVQPGGSLRLSCAASGFTFSSYYMEWVRQAPGKGLEWVAASRNQANDYTTEYADSVKGRFTISRDNSKNTLYLQMNSLRAEDTAVYYCARDYYGSPYWYFDVWGQGTLVTVSS VL: DIQMTQSPSSLSASVGDRVTITCTASESLYSSKHKVHYLAWYQQKPGKAPKLLIYGVSNRYIGVPSRFSGSGSGTDFTLTISSLQPEDFATYYCAQFYSYPLTFGGGTKVEIK	0.43

The recorded OD450 for entry PcOxP_DB04_E05 (scFv, V domains shown, scFv in periplasmic extract) VH: EVQLLESGGGLVQPGGSLRLSCAASGNTFSDFYMEWVRQAPGKGLEWVAASRNKANYYTTEYADSVKGRFTISRDNSKNTLYLQMNSLRAEDTAVYYCARDYYGSSYWYFDVWGQGTLVTVSS VL: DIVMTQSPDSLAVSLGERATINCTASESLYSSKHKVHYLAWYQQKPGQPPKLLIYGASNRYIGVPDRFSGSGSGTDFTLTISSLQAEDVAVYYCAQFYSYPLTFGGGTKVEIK equals 0.67

Query PcOxP_DB02_D09 (scFv, V domains shown, scFv in periplasmic extract) VH: EVQLLESGGGLVQPGGSLRLSCAASGFTFSTFYMEWVRQAPGKGLEWVAASRNKANDYTTEYADSVKGRFTISRDNSKNTLYLQMNSLRAEDTAVYYCARDYYGSSYWYFDVWGQGTLVTVSS VL: DIQMTQSPSSLSASVGDRVTITCTASESLYSSKHKVHYLAWYQQKPGKAPKLLIYGASNRYGGVPSRFSGSGSGTDFTLTISSLQPEDFATYYCAQFYEYPLTFGGGTKVEIK yields OD450 of 0.16
